test: Ratio = (MABP / platelet EC50 ) x 10 E -8; assay type: functional

{"compound": "CCCCCCCCCCCCCCc1cccc(OCC(COP(=O)([O-])OCC[N+](C)(C)C)OC(C)=O)c1 (stereo not given)", "Ratio": 0.1}
{"compound": "CCCCCCCCCCCCCCc1ccc(OCC(COP(=O)([O-])OCC[N+](C)(C)C)OC(C)=O)cc1 (stereo not given)", "Ratio": 2.37}
{"compound": "CCCCCCCCCCCCCCCCCCOCC(COP(=O)([O-])OCC[N+](C)(C)C)OC(C)=O (stereo not given)", "Ratio": 1.98}
{"compound": "CCCCCCCCCCCCCCCCOCC(COP(=O)([O-])OCC[N+](C)(C)C)OC(C)=O (stereo not given)", "Ratio": 0.56}
{"compound": "CCCCCCCCCCCCCCCCCC(COP(=O)([O-])OCC[N+](C)(C)C)OC(C)=O (stereo not given)", "Ratio": 1.15}
